Literature-derived IC50 for UniProtKB P97477 follows.
Quantity Measured: IC50

Cc1cccc(Oc2ccc3nc(Nc4ccc(-c5c(C(=O)NCC(F)(F)F)cn6ncnc(N)c56)cc4)[nH]c3c2F)c1    < 100 nM
Nc1ncnn2cc(C(=O)NCC(F)(F)F)c(-c3ccc(Nc4nc5cc6c(cc5[nH]4)OC(F)(F)O6)cc3)c12    < 100 nM
c1ccc2c(-c3cnc4[nH]nc(-c5nc6c(CN7CCCCC7)cccc6[nH]5)c4c3)cncc2c1    1370 nM
COCc1cccc2[nH]c(-c3n[nH]c4ncc(-c5ccc(N6CCNCC6)nc5)cc34)nc12    > 1000 nM
O=C(c1cccc2[nH]c(-c3n[nH]c4ncc(-c5cncc6ccccc56)cc34)nc12)N1CCOCC1    2790 nM
O=C1NCc2cccc(-c3cc4cc(OCCN5CCCCC5)ccc4[nH]3)c21    200 nM
CCN(C)C(=O)c1cn2ncnc(N)c2c1-c1ccc(Nc2nc3ccc(Oc4ccccc4)c(F)c3[nH]2)cc1    < 100 nM

----------
Literature-derived IC50 for Aurora kinase A (Mus musculus) follows.
Quantity Measured: IC50

O=C1NCc2cccc(-c3cc4ccccc4[nH]3)c21    100 nM
CCOC(=O)c1cncc(-c2cnc3[nH]nc(-c4nc5c(COC)cccc5[nH]4)c3c2)c1    ~100000 nM
Cc1ccc(-c2ccc3nc(Nc4ccc(-c5c(C(=O)NCC(F)(F)F)cn6ncnc(N)c56)cc4)[nH]c3n2)cc1    < 100 nM
CNCc1cncc(-c2cnc3[nH]nc(-c4nc5ccc(C#N)cc5[nH]4)c3c2)c1    > 1000 nM

----------
Literature-derived IC50 for Aurora kinase A (Mus musculus) (UniProt P97477) follows.
Quantity Measured: IC50

CCNCc1cncc(-c2cnc3[nH]nc(-c4nc5cc(OC)ccc5[nH]4)c3c2)c1    356 nM
CN(C)C(=O)c1cn2ncnc(N)c2c1-c1ccc(Nc2nc3cc(F)cc(F)c3[nH]2)cc1    < 100 nM
Cc1c(C(=O)NCCN2CCOCC2)sc2ncnc(Nc3ccc(NC(=O)c4ccccc4)cc3)c12    > 10000 nM
N#Cc1cnc2sc(C(=O)Nc3ccc(CCN4CCCCC4)cc3)c3c2c1N(c1c(Cl)ccc2c1OCO2)C(=O)N3    > 1000 nM
COc1ccc2c(c1)cc(-c1ccc([N+](=O)[O-])c3c1C(=O)NC3)n2C(=O)OC(C)(C)C    270 nM
COCc1cccc2[nH]c(-c3n[nH]c4ncc(-c5cncc(CNC(C)C)c5C)cc34)nc12    12400 nM
Cc1nc2sc(C(=O)Nc3ccc(CN4CCOCC4)cc3)c3c2c(c1C#N)N(c1c(Cl)ccc2c1OCO2)C(=O)N3    > 1000 nM
CCCN(C)C(=O)c1cn2ncnc(N)c2c1-c1ccc(Nc2nc3cc(F)cc(F)c3[nH]2)cc1    < 100 nM
CCOC(=O)c1sc2nc(O)c(C#N)c3c2c1NC(=O)N3c1ccc(Oc2ccccc2)cc1    > 100000 nM
Nc1ncnn2cc(C(=O)NCC(F)(F)F)c(-c3ccc(Nc4nc5ccc(NC6CCCCC6)nc5[nH]4)cc3)c12    < 100 nM
Nc1ncnn2cc(C(=O)NC3CC3)c(-c3ccc(Nc4nc5ccc(Oc6ccccc6)c(F)c5[nH]4)cc3)c12    < 100 nM
COCc1cccc2[nH]c(-c3n[nH]c4ncc(-c5cncc(CN(C)C)c5C)cc34)nc12    321 nM
CN1CCN(CCc2ccc(NC(=O)c3sc4ncc(C#N)c5c4c3NC(=O)N5c3c(Cl)ccc4c3OCO4)cc2)CC1    ~10000 nM
CN(C)CCN(C)C(=O)c1cccc2[nH]c(-c3n[nH]c4ncc(-c5cncc6ccccc56)cc34)nc12    12100 nM
COC(=O)c1cncc(C=Cc2c[nH]nc2-c2nc3ccc(OC)cc3[nH]2)c1    > 100000 nM
CC(C)CNC(=O)c1cn2ncnc(N)c2c1-c1ccc(Nc2nc3ccc(Oc4ccccc4)c(F)c3[nH]2)cc1    < 100 nM

----------
Literature-derived IC50 for Aurora kinase A (Mus musculus) follows.
Quantity Measured: IC50

CCOC(=O)c1sc2nc(Cl)c(C#N)c3c2c1NC(=O)N3c1ccc(Oc2ccccc2)cc1    > 100000 nM
Nc1ncnn2cc(C(=O)NCC(F)(F)F)c(-c3ccc(Nc4nc5ccc(Br)cc5[nH]4)cc3)c12    < 100 nM
Cc1c(C(=O)NCCN2CCOCC2)sc2ncnc(Nc3ccc(Oc4ccccc4)cc3)c12    > 100000 nM
N#Cc1cnc2sc(C(=O)Nc3ccc(CN4CCCC(F)C4)cc3)c3c2c1N(c1c(Cl)ccc2c1OCO2)C(=O)N3 (centres unmarked)    1100 nM
CNCc1cncc(-c2cnc3[nH]nc(-c4nc5c(COC)cccc5[nH]4)c3c2)c1    > 1000 nM
COCCOCc1cccc2[nH]c(-c3n[nH]c4ncc(-c5cncc6ccccc56)cc34)nc12    > 1000 nM
N#Cc1cnc2sc(C(=O)Nc3ccc(CN4CCOCC4)cc3)c3c2c1N(c1ccc(Oc2ccccc2)cc1)C(=O)N3    > 100000 nM
COCCNC(=O)c1sc2ncnc(Oc3ccc4[nH]c(C)cc4c3F)c2c1C    > 10000 nM

----------
Literature-derived IC50 for UniProt:P97477 follows.
Quantity Measured: IC50

COCc1cccc2[nH]c(-c3n[nH]c4ncc(-c5cccnc5)cc34)nc12    > 1 µM
COC1CCN(Cc2ccc(NC(=O)c3sc4ncc(C#N)c5c4c3NC(=O)N5c3ccc(Oc4ccccc4)cc3)cc2)CC1    > 100 µM
c1ccc2c(-c3cnc4[nH]nc(-c5nc6cc(N7CCOCC7)ccc6[nH]5)c4c3)cncc2c1    0.0415 µM
Nc1ncnn2cc(C(=O)N3CCOCC3)c(-c3ccc(Nc4nc5ccc(Oc6ccccc6)c(F)c5[nH]4)cc3)c12    < 0.1 µM
CC(C)(C)OC(=O)NC1CCN(Cc2ccc(NC(=O)c3sc4ncc(C#N)c5c4c3NC(=O)N5c3c(Cl)ccc4c3OCO4)cc2)CC1    > 1 µM
CCNCc1cncc(-c2cnc3[nH]nc(-c4nc5c(COC)cccc5[nH]4)c3c2)c1    4.46 µM
Nc1ncnn2cc(C(=O)NCC(F)(F)F)c(-c3ccc(Nc4nc5ccc(Cl)nc5[nH]4)cc3)c12    < 0.1 µM

----------
Literature-derived IC50 for Aurora kinase A (Mus musculus) follows.
Quantity Measured: IC50

COCc1cccc2[nH]c(-c3n[nH]c4ncc(-c5ccc(F)nc5)cc34)nc12    > 10 µM
O=C1NCc2cccc(-c3cc4cc(OCCCO)ccc4[nH]3)c21    0.1 µM
COCc1cccc2[nH]c(-c3n[nH]c4ncc(-c5cncc(CNC6CCN(C)CC6)c5)cc34)nc12    > 10 µM
Cc1cc2c(F)c(Oc3ncnc4sc(C(=O)NCCN5CCCCC5)c(C)c34)ccc2[nH]1    > 100 µM
Nc1ncnn2cc(C(=O)N3CCCC3)c(-c3ccc(Nc4nc5ccc(Oc6ccccc6)c(F)c5[nH]4)cc3)c12    < 0.1 µM
FC1(F)Oc2cc3nc(-c4n[nH]c5ncc(-c6cccnc6)cc45)[nH]c3cc2O1    > 10 µM
COc1cncc(C=Cc2c[nH]nc2-c2nc3ccc(OC)cc3[nH]2)c1    0.399 µM
COCc1cccc2[nH]c(-c3n[nH]c4ncc(-c5cnccc5C)cc34)nc12    > 1 µM

----------
Literature-derived IC50 for Aurora kinase A (Mus musculus) follows.
Quantity Measured: IC50

COc1ccc2c(c1)cc(-c1cccc3c1C(=O)NC3=O)n2C(=O)OC(C)(C)C    270 nM
O=C(NC1CCCC1)c1cccc2[nH]c(-c3n[nH]c4ncc(-c5cncc6ccccc56)cc34)nc12    > 1000 nM
COCc1cccc2[nH]c(-c3n[nH]c4ncc(-c5cncnc5)cc34)nc12    ~10000 nM
c1ccc2c(-c3cnc4[nH]nc(-c5nc6c(COCCN7CCOCC7)cccc6[nH]5)c4c3)cncc2c1    2270 nM
N#Cc1cnc2sc(C(=O)Nc3ccc(CCN4CCCCC4)cc3)c3c2c1N(c1ccc(Oc2ccccc2)cc1)C(=O)N3    > 100000 nM
CCN(C)C(=O)c1cn2ncnc(N)c2c1-c1ccc(Nc2nc3cc(F)cc(F)c3[nH]2)cc1    < 100 nM
COCc1cccc2[nH]c(-c3nn(C)c4ncc(-c5cncc6ccccc56)cc34)nc12    ~100000 nM
Nc1ncnn2cc(C(=O)NCC(F)(F)F)c(-c3ccc(Nc4nc5ccc(C(F)(F)F)nc5[nH]4)cc3)c12    < 100 nM

----------
pIC50: −log10 of the molar value.
Literature-derived pIC50 for Aurora kinase A (Mus musculus) follows.
Quantity Measured: pIC50

COCCNC(=O)c1cn2ncnc(N)c2c1-c1ccc(Nc2nc3ccc(Oc4ccccc4)c(F)c3[nH]2)cc1    > 7.00
O=C(c1cccc2[nH]c(-c3n[nH]c4ncc(-c5cncc6ccccc56)cc34)nc12)N1CCCC1    5.32
Nc1ncnn2cc(C(=O)NCC3CC3)c(-c3ccc(Nc4nc5cc(F)cc(F)c5[nH]4)cc3)c12    > 7.00
CC(C)(C)NC(=O)c1cccc2[nH]c(-c3n[nH]c4ncc(-c5cncc6ccccc56)cc34)nc12    ~6.00
COc1ccc2[nH]c(-c3n[nH]c4ncc(-c5cncc(CNC(C)C)c5)cc34)nc2c1    6.45
c1ccc2c(-c3cnc4[nH]nc(-c5nc6c(CN7CCOCC7)cccc6[nH]5)c4c3)cncc2c1    ~5.00
N#Cc1cnc2sc(C(=O)Nc3ccc(CN4CCC(N)CC4)cc3)c3c2c1N(c1c(Cl)ccc2c1OCO2)C(=O)N3    < 4.00
CCOC(=O)c1sc2nc(O)c(C#N)c3c2c1NC(=O)N3c1ccncc1    < 4.00
